Procedure Details: in vivo
Test Settings: rat, po
Observation Type: ED50

[[record]]
compound = "O=C1[C@H]2CCCC[C@H]2C(=O)N1CC1CCN(CCc2ccccc2)CC1"
obs_value = "> 70 mg/kg"

[[record]]
compound = "O=C(CCCN1CCC(O)(c2ccc(Cl)cc2)CC1)c1ccc(F)cc1 [haloperidol, reference compound]"
obs_value = "< 11 mg/kg"


---

Listed next: entries and their corresponding Ki.
Study Target: Sigma receptor (Cavia porcellus)
Construct: Brain membranes were prepared by the method of Tam; from tissue; host or cells: guinea pig whole brain membranes
Procedure Details: Sigma Receptor Binding Assay
Assay type: guinea pig (male Hartley), brain membranes
Test Settings: 1 nM (+)-[3H]SKF 10,047, guinea pig brain membranes, pH 7.4, 45 min room temperature; read-out: Receptor Binding Affinity Sigma (Ki class)
Observation Type: Ki

[[record]]
molecule = "O=C1c2ccccc2C(=O)N1CCC1CCN(Cc2cccc(F)c2)CC1 [Example 40]"
obs_value = "1 to 30 nM"

[[record]]
molecule = "O=C1C2C3CCC(O3)C2C(=O)N1CC1CCN(CCc2ccccc2)CC1 (centres unmarked) [Example 58]"
obs_value = "1 to 30 nM"

[[record]]
molecule = "O=C1C2CCCCC2C(O)N1CC1CCN(CCc2ccccc2)CC1 (centres unmarked) [Example 5]"
obs_value = "101 to 500 nM"

[[record]]
molecule = "O=C1C2=C(CCCC2)C(c2ccco2)N1CC1CCN(CCc2ccccc2)CC1 (centres unmarked) [Example 141]"
obs_value = "1 to 30 nM"

[[record]]
molecule = "O=C1[C@H]2CC=CC[C@H]2C(=O)N1CC1CCN(CCc2ccccc2)CC1 [Example 1]"
obs_value = "31 to 100 nM"


---

Study Target: Sigma receptor (Cavia porcellus, UniProt Q60492)
Construct: Brain membranes were prepared by the method of Tam; from tissue; host or cells: guinea pig whole brain membranes
Sequence (Q60492 whole entry): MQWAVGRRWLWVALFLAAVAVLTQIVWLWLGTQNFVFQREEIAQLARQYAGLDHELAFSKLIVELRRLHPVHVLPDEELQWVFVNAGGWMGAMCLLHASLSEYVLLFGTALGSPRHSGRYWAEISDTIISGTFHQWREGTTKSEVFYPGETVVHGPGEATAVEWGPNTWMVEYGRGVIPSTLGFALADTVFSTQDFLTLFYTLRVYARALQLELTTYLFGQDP
Procedure Details: Sigma Receptor Binding Assay
Type: guinea pig (male Hartley), brain membranes
Test Settings: 1 nM (+)-[3H]SKF 10,047, guinea pig brain membranes, pH 7.4, 45 min room temperature; read-out: Receptor Binding Affinity Sigma (Ki class)
Listed next: entries and their corresponding Ki.
Observation Type: Ki

[[record]]
compound = "O=C1[C@H]2CCCC[C@H]2C(=O)N1CC1CCN(CCCc2ccccc2)CC1"
obs_value = "31 to 100 nM"

[[record]]
compound = "O=C1[C@H]2CCCC[C@H]2C(=O)N1CC1CCN(CCc2c[nH]c3ccccc23)CC1"
obs_value = "101 to 500 nM"

[[record]]
compound = "O=C1C2C3C=CC(C4CCC34)C2C(=O)N1CC1CCN(CCc2ccccc2)CC1 (stereo not drawn) [Example 113]"
obs_value = "31 to 100 nM"

[[record]]
compound = "O=C1[C@H]2CCCC[C@H]2C(=O)N1CC1CCN(Cc2ccccc2)CC1"
obs_value = "1 to 30 nM"

[[record]]
compound = "O=C1C2C3C=CC(CCC3)C2C(=O)N1CC1(O)CCN(CCc2ccccc2)CC1 (stereo not drawn)"
obs_value = "1 to 30 nM"

[[record]]
compound = "O=C1C2C3C=CC(C3)C2C(=O)N1CC1CCN(CCc2ccccc2)CC1 (stereo not drawn)"
obs_value = "31 to 100 nM"

[[record]]
compound = "O=C1[C@H]2CC=CC[C@H]2C(=O)N1CC1=CCN(CCc2ccccc2)CC1"
obs_value = "1 to 30 nM"

[[record]]
compound = "O=C1C2C3CCC(C4CCC43)C2C(=O)N1CC1CCN(CCc2ccccc2)CC1 (stereo not drawn)"
obs_value = "1 to 30 nM"

[[record]]
compound = "O=C1c2ccccc2C(=O)N1CCCC1CCCN(CCc2ccccc2)C1 (stereo not drawn)"
obs_value = "1 to 30 nM"


---

Study Target: Sigma receptor (Cavia porcellus)
Construct: Brain membranes were prepared by the method of Tam; from tissue; host or cells: guinea pig whole brain membranes
Procedure Details: Sigma Receptor Binding Assay
Format: guinea pig (male Hartley), brain membranes
Test Settings: 1 nM (+)-[3H]SKF 10,047, guinea pig brain membranes, pH 7.4, 45 min room temperature; read-out: Receptor Binding Affinity Sigma (Ki class)
Listed next: entries and their corresponding Ki.
Observation Type: Ki

[[record]]
compound = "O=C1C2CC=CCC2C(=O)N1CC1CCN(CCc2ccccc2)CC1 (stereo not shown)"
obs_value = "1 to 30 nM"

[[record]]
compound = "O=C1[C@H]2CCCC[C@H]2C(=O)N1CC1CCN(Cc2ccc(F)cc2)CC1"
obs_value = "1 to 30 nM"

[[record]]
compound = "O=C1C2=C(CN1CC1CCN(CCc3ccccc3)CC1)C1CCCC2CC1 (stereo not shown)"
obs_value = "1 to 30 nM"

[[record]]
compound = "O=C1C2C3C=CC(C4CCC34)C2C(=O)N1CC1CCN(CCc2c[nH]c3ccccc23)CC1 (stereo not shown)"
obs_value = "1 to 30 nM"

[[record]]
compound = "CC12CC=CCC1C(=O)N(CC1CCN(CCc3ccccc3)CC1)C2=O (stereo not shown)"
obs_value = "101 to 500 nM"

[[record]]
compound = "CC(C)CC1C2=C(CCCC2)C(=O)N1CC1CCN(CCc2ccccc2)CC1 (stereo not shown)"
obs_value = "1 to 30 nM"

[[record]]
compound = "O=C1C2C3C=CC(C4C=CC43)C2C(=O)N1CC1(O)CCN(CCc2ccccc2)CC1 (stereo not shown)"
obs_value = "31 to 100 nM"

[[record]]
compound = "O=C1c2ccccc2C(=O)N1CCC1CCN(Cc2ccccc2)CC1"
obs_value = "1 to 30 nM"

[[record]]
compound = "O=C1c2ccccc2C(=O)N1CCC1CCN(CCc2ccccc2)CC1"
obs_value = "1 to 30 nM"

[[record]]
compound = "O=C1c2ccccc2C(=O)N1CCCC1=CCN(CCc2ccccc2)CC1"
obs_value = "31 to 100 nM"

[[record]]
compound = "O=C1c2ccccc2C(=O)N1CC1CCCN(Cc2ccccc2)C1 (stereo not shown)"
obs_value = "1 to 30 nM"

[[record]]
compound = "CN(C)c1ccc(CCN2CCC(CN3C(=O)[C@H]4CCCC[C@H]4C3=O)CC2)cc1"
obs_value = "1 to 30 nM"

[[record]]
compound = "CC12CCCCC1(C)C(=O)N(CC1CCN(CCc3ccccc3)CC1)C2=O (stereo not shown)"
obs_value = "31 to 100 nM"

[[record]]
compound = "CC1CC[C@@H]2C(=O)N(CC3CCN(CCc4ccccc4)CC3)C(=O)[C@@H]2C1 (stereo partly shown)"
obs_value = "1 to 30 nM"

[[record]]
compound = "O=C1c2ccccc2C(=O)N1CC1CCN(Cc2ccccc2)CC1"
obs_value = "1 to 30 nM"

[[record]]
compound = "O=C1[C@H]2CCCC[C@H]2C(=O)N1C1CCN(CCc2ccccc2)CC1"
obs_value = "31 to 100 nM"

[[record]]
compound = "O=C1c2ccccc2C(=O)N1CC1CCCN(CCc2ccccc2)C1 (stereo not shown)"
obs_value = "1 to 30 nM"

[[record]]
compound = "O=C1C2=C(CCCC2)C(c2ccccc2)N1CC1CCN(CCc2ccccc2)CC1 (stereo not shown)"
obs_value = "31 to 100 nM"

[[record]]
compound = "O=C1[C@H]2CCCC[C@H]2C(=O)N1CC1CCN(CCc2ccc(Br)cc2)CC1"
obs_value = "1 to 30 nM"

[[record]]
compound = "O=C1[C@H]2CCCC[C@H]2C(=O)N1CCCC1=CCN(CCc2ccccc2)CC1"
obs_value = "1 to 30 nM"

[[record]]
compound = "O=C1[C@H]2CC=CC[C@H]2C(=O)N1CCCC1=CCN(CCc2ccccc2)CC1"
obs_value = "1 to 30 nM"

[[record]]
compound = "O=C1[C@H]2CCCC[C@H]2C(=O)N1CC1CCN(Cc2cccc(C(F)(F)F)c2)CC1"
obs_value = "31 to 100 nM"


---

Study Target: Sigma receptor (Cavia porcellus)
Construct: Brain membranes were prepared by the method of Tam; from tissue; host or cells: guinea pig whole brain membranes
Procedure Details: Sigma Receptor Binding Assay
Type: guinea pig (male Hartley), brain membranes
pKi: −log10 of the molar value.
Observation Type: pKi

[[record]]
molecule = "O=C1[C@H]2CCCC[C@H]2C(=O)N1CC1(c2cccc3ccccc23)CCN(CCc2ccccc2)CC1 [Example 127]"
obs_value = "7.00 to 7.51"

[[record]]
molecule = "O=C1c2ccccc2C(=O)N1CC1(c2cccc(Cl)c2)CCN(CCc2ccccc2)CC1 [Example 130]"
obs_value = "7.52 to 9.00"

[[record]]
molecule = "COc1cccc(C2(CN3C(=O)C4CCCCC4C3=O)CCN(CCc3ccccc3)CC2)c1 (stereo not shown) [Example 125]"
obs_value = "7.00 to 7.51"

[[record]]
molecule = "O=C1C2CCCCC2C(=O)N1CC1(c2cccc(C(F)(F)F)c2)CCN(CCc2ccccc2)CC1 (stereo not shown) [Example 126]"
obs_value = "7.52 to 9.00"

[[record]]
molecule = "O=C1[C@H]2CCCC[C@H]2C(=O)N1CC1(c2csc3ccccc23)CCN(CCc2ccccc2)CC1 [Example 129]"
obs_value = "7.52 to 9.00"

[[record]]
molecule = "O=C1[C@H]2CCCC[C@H]2C(=O)N1CC1(c2ccsc2)CCN(CCc2ccccc2)CC1 [Example 128]"
obs_value = "7.52 to 9.00"

[[record]]
molecule = "O=C1[C@H]2CCCC[C@H]2C(=O)N1CC1(c2ccccc2)CCN(CCc2ccccc2)CC1 [Example 122]"
obs_value = "7.52 to 9.00"


Measured values drawn from patent US5480892A for this set.
